- System: 885724-159-R-J1-PDC KRAS PDC multicell spheroid viability;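 also: spheroids exposed to agents for 7 days before readout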
- ASSAY_DETAILS: Anticancer human tumor 885724-159-R-J1-PDC patient-derived pancreatic adenocarcinoma cell line growth inhibition [KRAS2]
- MEASUREMENT_CONTEXT: curve of first compound; second compound 10 µM
ASSAY_ENDPOINT: IC50

Query: Fill in the blank: the reported IC50 of CCN1CCN(Cc2ccc(Nc3ncc(F)c(-c4cc(F)c5nc(C)n(C(C)C)c5c4)n3)nc2)CC1 + COc1cc2nc(C)nc(NC(C)c3cc(N)cc(C(F)(F)F)c3)c2cc1OC1CCOC1 is ____.
Response: < 3.16 nM

Query: Fill in the blank: the reported IC50 of CC1OCC2(CCN(c3cnc(Sc4ccnc(N)c4Cl)c(N)n3)CC2)C1N (stereo unspecified) + COc1cc2nc(C)nc(NC(C)c3cc(N)cc(C(F)(F)F)c3)c2cc1OC1CCOC1 is ____.
Response: < 31.6 nM

Query: Fill in the blank: the reported IC50 of CC(=O)OC12COC1CC(O)C1(C)C(=O)C(O)C3=C(C)C(OC(=O)C(O)C(NC(=O)OC(C)(C)C)c4ccccc4)CC(O)(C(OC(=O)c4ccccc4)C21)C3(C)C (stereo unspecified) + COc1cc2nc(C)nc(NC(C)c3cc(N)cc(C(F)(F)F)c3)c2cc1OC1CCOC1 is ____.
Response: > 3160 nM

Query: Fill in the blank: the reported IC50 of COC(=O)c1ccc2c(C(=Nc3ccc(N(C)C(=O)CN4CCN(C)CC4)cc3)c3ccccc3)c(O)[nH]c2c1 + CNCc1ccccc1-c1csc(C(C)Nc2nc(C)nc3cc(OC)c(OC)cc23)c1 is ____.
Response: < 31.6 nM

Query: Fill in the blank: the reported IC50 of COc1cc2nccc(Oc3ccc(NC(=O)C4(C(=O)Nc5ccc(F)cc5)CC4)cc3)c2cc1OC + COc1cc2nc(C)nc(NC(C)c3cc(N)cc(C(F)(F)F)c3)c2cc1OC1CCOC1 is ____.
Response: < 31.6 nM

Query: Fill in the blank: the reported IC50 of CC1(C)CCC(CN2CCN(c3ccc(C(=O)NS(=O)(=O)c4ccc(NCC5CCOCC5)c([N+](=O)[O-])c4)c(Oc4cnc5[nH]ccc5c4)c3)CC2)=C(c2ccc(Cl)cc2)C1 + COc1cc2nc(C)nc(NC(C)c3cc(N)cc(C(F)(F)F)c3)c2cc1OC1CCOC1 is ____.
Response: < 31.6 nM
